- EXPERIMENTAL_TARGET: human EP2 receptor (Homo sapiens)
- Sequence (P43116 whole entry): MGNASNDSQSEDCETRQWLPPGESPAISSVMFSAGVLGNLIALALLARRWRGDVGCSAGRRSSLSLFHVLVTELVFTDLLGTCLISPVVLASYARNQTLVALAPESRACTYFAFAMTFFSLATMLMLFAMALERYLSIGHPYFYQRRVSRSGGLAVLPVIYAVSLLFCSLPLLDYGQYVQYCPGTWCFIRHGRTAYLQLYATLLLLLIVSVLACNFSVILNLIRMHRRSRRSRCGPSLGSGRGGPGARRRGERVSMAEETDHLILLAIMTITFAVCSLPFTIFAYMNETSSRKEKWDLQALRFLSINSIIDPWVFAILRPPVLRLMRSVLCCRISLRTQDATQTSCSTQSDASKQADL
- RUN_DESCRIPTION: Experiment of measuring EP2 antagonistic activity using cells expressing prostanoid receptor (cAMP)
- CONDITION_DETAILS: CHO cells expressing human EP2 receptor; PGE2 10 nmol/L; cAMP quantified after 1 hour at room temperature; read-out: EP2_IC50
PARAMETER: IC50 (nM)
Give bare numbers, in nM.

Parameter requested: IC50. Apply to each item below.
1. Cc1cc(OCCc2ccc(F)cc2F)cc(C)c1C(=O)Nc1cc([C@H]2C[C@H]2C(=O)O)ccc1C(F)(F)F [Example 13]
2. Cc1cc(OCCc2ccccc2)cc(C)c1C(=O)Nc1cc([C@H]2C[C@H]2C(=O)O)ccc1C(F)(F)F [Example 18]
3. CC[C@H](C)n1c(CCCc2ccccc2)ccc1C(=O)Nc1cc([C@@H]2C[C@@H]2C(=O)O)ccc1C(F)(F)F [Example 5]
4. CC(C)c1cc(OCc2ccccc2)ccc1C(=O)Nc1cc([C@H]2C[C@H]2C(=O)O)ccc1C(F)(F)F [Example 28]
5. CC(C)n1c(CCCc2ccccc2)ccc1C(=O)Nc1cc([C@@H]2C[C@@H]2C(=O)O)ccc1C(F)(F)F [Example 3-1]
6. CC(C)c1nn(CCCc2ccccc2)cc1C(=O)Nc1cc([C@H]2C[C@H]2C(=O)O)ccc1C(F)(F)F [Example 31-1]
7. CC(C)n1c(CCCc2ccccc2)ccc1C(=O)Nc1cc([C@@H]2C[C@H]2C(=O)O)ccc1C(F)(F)F [Example 3-2]
8. Cc1cc(OCCc2ccccc2)cc(C)c1C(=O)Nc1cc(CC(C)C(=O)O)ccc1C(F)(F)F (centres unmarked) [Example 24-2]

OUTPUT:
1: 4.7; 2: 0.9; 3: 2.5; 4: 4; 5: 2.1; 6: 8.9; 7: 77; 8: 12

====

Assignment: determine reported IC50 for the given molecules.
- EXPERIMENTAL_TARGET: UniProt:P43116
- RUN_DESCRIPTION: Experiment of measuring EP2 antagonistic activity using cells expressing prostanoid receptor (cAMP)
- CONDITION_DETAILS: CHO cells expressing human EP2 receptor; PGE2 10 nmol/L; cAMP quantified after 1 hour at room temperature; read-out: EP2_IC50

// for each molecule in input: emit IC50
1. Cc1cc(OCCc2ccccc2)cc(C)c1C(=O)Nc1cc([C@H]2C[C@H]2C(=O)O)c(Cl)cc1C(F)(F)F
2. CCC(C)c1c(C(=O)Nc2cc([C@H]3C[C@H]3C(=O)O)ccc2C(F)(F)F)ccn1CCCc1ccccc1 (stereo partly drawn)
3. CCC(C)n1c(CCCc2ccccc2)ccc1C(=O)Nc1cc([C@H]2C[C@H]2C(=O)O)ccc1C(F)(F)F (relative stereo)

OUTPUT:
1. < 0.3 nM
2. < 0.3 nM
3. < 0.3 nM

====

- EXPERIMENTAL_TARGET: UniProtKB P43116
- RUN_DESCRIPTION: Experiment of measuring EP2 antagonistic activity using cells expressing prostanoid receptor (cAMP)
- CONDITION_DETAILS: CHO cells expressing human EP2 receptor; PGE2 10 nmol/L; cAMP quantified after 1 hour at room temperature; read-out: EP2_IC50
Strictly below 3 nM in IC50: true. Otherwise: false.

As a guide, the following entries are already answered.
INPUT: Decide: IC50 of CC[C@H](C)n1c(CCCc2ccccc2)ccc1C(=O)Nc1cc([C@H]2C[C@H]2C(=O)O)ccc1C(F)(F)F [Example 6] strictly below 3 nM?
OUTPUT: true

INPUT: I wonder whether CC[C@H](C)n1c(CCCc2ccccc2)ccc1C(=O)Nc1cc([C@H]2C[C@H]2C(=O)O)ccc1OC [Example 4] has IC50 below 3 nM. Can you tell?
OUTPUT: true

INPUT: IC50 under 3 nM? Item: CC[C@H](C)n1c(CCCc2ccccc2)ccc1C(=O)Nc1cc(C)cc([C@H]2C[C@H]2C(=O)O)c1 (relative stereo) [Example 2-1]
OUTPUT: false

INPUT: Dear reviewer, please state whether CC(C)c1c(C(=O)Nc2cc([C@H]3C[C@H]3C(=O)O)ccc2C(F)(F)F)cnn1CCCc1ccccc1 [Example 31-2] has IC50 strictly beneath 3 nM.
OUTPUT: true

INPUT: Identify whether the compound Cc1cc(OCCC2CC2)cc(C)c1C(=O)Nc1cc([C@H]2C[C@H]2C(=O)O)ccc1C(F)(F)F [Example 20-1] records IC50 below 3 nM.
OUTPUT: false

Here is another compound to look at.
INPUT: Identify whether the compound CC[C@H](C)n1c(CCCc2ccccc2)ccc1C(=O)Nc1cc([C@H]2C[C@H]2C(=O)O)ccc1C(F)(F)F (relative stereo) [Example 2] records IC50 below 3 nM.
OUTPUT: true
